meta.source: ChEMBL document CHEMBL5241101

- System: Plasmodium falciparum
- assay-notes: Antimalarial activity against chloroquine resistant Plasmodium falciparum K1 assessed as inhibition of parasite growth incubated for 72 hrs by [3H]-hypoxanthine incorporation assay based liquid scintillation counter
- Type: functional, organism-based
pIC50: −log10 of the molar value.
Overview of reported pIC50 across a group of compounds:
assay-metric: pIC50

molecular-string: COc1cc(O)c(-c2cc(-c3cc(-c4c(O)cc5c(c4OC)[C@H](C)N[C@H](C)C5)c4cc(C)cc(OC)c4c3O)c(O)c3c(OC)cc(C)cc23)c2c1[C@@H](C)N[C@H](C)C2
assay-metric: pIC50
obs-value: 6.86
--
molecular-string: COc1cc(O)c(-c2cc(-c3cc(-c4c(O)cc5c(c4OC)[C@@H](C)N[C@H](C)C5)c4cc(C)cc(OC)c4c3O)c(O)c3c(OC)cc(C)cc23)c2c1[C@H](C)N[C@H](C)C2
assay-metric: pIC50
obs-value: 6.34

----------
- assay-notes: Toxicity in Sprague-Dawley rat assessed as NOAEL by po administrated gestational day upto 20 days
- Format: organism-based
- run-parameters: in vivo, time < 20 day

molecule: COc1ccc2cc3[n+](cc2c1OC)CCc1cc2c(cc1-3)OCO2 [BERBERINE]
NOAEL at 480 h [mg/kg]: 420

----------
- Tested on: A549
- assay-notes: Cytotoxicity against human A549 cells assessed as cell growth inhibition incubated for 72 hrs by MTT assay
- Format: functional, cell-based
- run-parameters: A549, 72 h
Catalogue of IC50 values
assay-metric: IC50 (µM)

compound: O[C@@H]1CCCN2[C@@H](CC1)C[C@]13CN4CCCC/C=C\CC[C@](O)(C=C(c5nccc6c5[nH]c5ccccc56)[C@@H]1CC4)[C@H]23 [32,33-DIHYDRO-31-HYDROXYMANZAMINE A]
assayed-target: A549
assay-metric: IC50
obs-value: 5.8
--
compound: O[C@]12C=C(c3nccc4c3[nH]c3ccccc34)[C@@H]3CCN(CCCC/C=C\CC1)C[C@@]31C[C@@]34CC[C@@H](CCCN3[C@H]12)O4
assayed-target: A549
assay-metric: IC50
obs-value: 5.8
--
compound: [O-][N+]1=C([C@H]2[C@@H]3CCN4CCCC/C=C\CC[C@@]5(O[C@@H]25)[C@@H]2NCCCC/C=C\CC[C@@]23C4)c2[nH]c3ccccc3c2CC1
assayed-target: A549
assay-metric: IC50
obs-value: 5.8

----------
- System: COLO 201
- assay-notes: Cytotoxicity against human COLO201 cells assessed as cell growth inhibition incubated for 48 hrs by WST-1 assay
- Format: functional, cell-based
- run-parameters: COLO 201, 48 h

compound: CO[C@@H]1C=C[C@@]23c4cc5c(cc4CN(C[C@@H]2O)[C@H]3C1)OCO5 [(+)-HAEMANTHAMINE]
assayed-target: COLO 201
IC50 (nM): 300
--
compound: CO[C@@H]1C=C[C@@]23c4cc5c(cc4[C@H](O)N(C[C@@H]2O)[C@H]3C1)OCO5
assayed-target: COLO 201
IC50 (nM): 300
--
compound: O[C@H]1[C@H]2c3cc4c(cc3CN3CCC(=C[C@@H]1O)[C@H]23)OCO4
assayed-target: COLO 201
IC50 (nM): 300

----------
- Tested on: HT-29
- assay-notes: Cytotoxicity against human HT-29 cells assessed as cell growth inhibition incubated for 48 hrs by WST-1 assay
- Assay type: functional, cell-based
- run-parameters: HT-29, 48 h
Reported IC50 values are given for each entry in this list.
assay-metric: IC50 (nM)

compound: CO[C@@H]1C=C[C@@]23c4cc5c(cc4[C@H](O)N(C[C@@H]2O)[C@H]3C1)OCO5
unit-abbreviation: nM
obs-value: 300
--
compound: O[C@H]1[C@H]2c3cc4c(cc3CN3CCC(=C[C@@H]1O)[C@H]23)OCO4
unit-abbreviation: nM
obs-value: 300
--
compound: CO[C@@H]1C=C[C@@]23c4cc5c(cc4CN(C[C@@H]2O)[C@H]3C1)OCO5 [(+)-HAEMANTHAMINE]
unit-abbreviation: nM
obs-value: 300
